- Tested on: Mus musculus
- measurement_protocol: Antihypoxic effect tested by the ratio of survival time (SVT) of test mice to that of control group, dosed orally 30 mg/kg
- Assay type: functional
- condition_info: route oral
This section presents compounds with their documented SVT values.
The figure you give is taken to be in %; do not add the unit.

CCOc1ccccc1N1CCN(CC(=O)NC2c3c(O)c(C)cc(C)c3CC2(C)C)CC1 (stereo not drawn)
130.4
COc1cccc(N2CCN(CC(=O)NC3c4c(O)c(C)cc(C)c4CC3c3ccc(Cl)cc3)CC2)c1 (stereo not drawn)
91.7
COc1ccc(N2CCN(CC(=O)NC3c4c(O)c(C)cc(C)c4CC3(C)C)CC2)cc1 (stereo not drawn)
100.6
COc1ccc(N2CCN(CC(=O)NC3c4c(O)c(C)cc(C)c4CC3(C)C)CC2)cc1OC (stereo not drawn)
85.7
CCC(C)c1cc(C)c2c(c1O)C(NC(=O)CN1CCN(c3cccc(OC)c3)CC1)CC2 (stereo not drawn)
162.3

Asked: I'd like to know its SVT. The compound in question is CCC(C)c1cc(C)c2c(c1O)C(NC(=O)CN1CCN(c3ccccc3)CC1)CC2 (stereo not drawn)
Given back: 85.9

Asked: Further, for Cc1cc(C)c2c(c1O)C(NC(=O)CN1CCN(c3ccc(Cl)c(Cl)c3)CC1)C(C)(C)C2 (stereo not drawn) ?
Given back: 100.1

Asked: Further, for Cc1ccc(N2CCN(CC(=O)NC3c4c(O)c(C)cc(C)c4CC3(C)C)CC2)cc1Cl (stereo not drawn) ?
Given back: 90.5

Asked: Further, for Cc1cc(C)c2c(c1O)C(NC(=O)CN1CCN(c3cccc(Cl)c3)CC1)C(C)(C)C2 (stereo not drawn) ?
Given back: 147.9

Asked: Further, for COc1cccc(N2CCN(CC(=O)NC3c4c(O)c(C)cc(C)c4CC3(C)C)CC2)c1 (stereo not drawn) ?
Given back: 135.4

* * *

This section presents molecules with their documented SVT values.
- Tested on: Mus musculus
- measurement_protocol: Antihypoxic effect tested by the ratio of survival time (SVT) of test mice to that of control group, dosed orally 30 mg/kg
- Assay type: functional
- condition_info: route oral
The figure you give is taken to be in %; do not add the unit.

Sample records with SVT:
Cc1ccc(Cl)cc1N1CCN(CC(=O)NC2c3c(O)c(C)cc(C)c3CC2(C)C)CC1 (stereo not given)
103.2
Cc1cc(C)c2c(c1O)C(N)C(C)(C)C2 (stereo not given)
142.1
Cc1cc(C)c2c(c1O)C(NC(=O)CN1CCN(c3cccc(Br)c3)CC1)C(C)(C)C2 (stereo not given)
83.2

Consider the record given below.
Asked: I'd like to know its SVT. The molecule in question is COc1cccc(N2CCN(CC(=O)NC3c4c(O)c(C)cc(C)c4CC3c3ccccc3)CC2)c1 (stereo not given)
Given back: 78.3

* * *

- Test system: Mus musculus
- measurement_protocol: Antihypoxic effect by the ratio of survival time (SVT) of test mice to that of control group at a dose of 10 mg/kg administered intraperitoneally.
- Assay type: functional
- condition_info: route intraperitoneal
This section presents compounds with their documented SVT values.
The figure you give is taken to be in %; do not add the unit.

Cc1cc(C)c2c(c1O)C(N)C(C)(C)C2 (centres undefined)
217
Cc1cc(C)c2c(c1O)C(NC(=O)CN1CCN(C)CC1)C(C)(C)C2 (centres undefined)
92.5
COc1cccc(N2CCN(CC(=O)NC3c4c(O)c(C)cc(C)c4CC3(C)C)CC2)c1 (centres undefined)
176.4

Consider the record given below.
Asked: Give SVT (Mus musculus) of the following compound: CCCC(C)C1(CC)C(=O)N=C([O-])NC1=O.[Na+] (centres undefined) [PENTOBARBITAL SODIUM]
Given back: 134.9
